# reported MST; entries follow
Test system: Plasmodium berghei
assay.name: Antimalarial activity against Plasmodium berghei NK65 infected in BALB/c mouse assessed as mean survival time at 25 mg/kg, sc qd for 4 days (reference value: 23 +/- 4 days)
Format: functional
experimental.readout: MST (days)

molecule	quantitative.readout
CCC(=O)O[C@H]1CC[C@@H]2C(=C[C@H](OC)[C@@H]3[C@@]2(C)CC[C@]2(C)[C@@H]([C@H](C)C[C@H](C=C(C)C)OC(=O)CC)CC[C@@]32C)C1(C)C [KARAVOATE D]	22
CO[C@H]1C=C2[C@@H](CC[C@H](OC(C)=O)C2(C)C)[C@]2(C)CC[C@]3(C)[C@@H]([C@H](C)C[C@H](C=C(C)C)OC(C)=O)CC[C@@]3(C)[C@H]12 [KARAVOATE B]	20
CO[C@H]1C=C2[C@@H](CC[C@H](O)C2(C)C)[C@]2(C)CC[C@]3(C)[C@@H]([C@H](C)C[C@@H](O)C=C(C)C)CC[C@@]3(C)[C@H]12	23
CC(C)=C[C@H](O)C[C@@H](C)[C@H]1CC[C@@]2(C)[C@@H]3[C@@H](O[C@@H]4O[C@H](CO)[C@@H](O)[C@@H](O)[C@H]4O)C=C4[C@@H](CC[C@H](O)C4(C)C)[C@]3(C)CC[C@]12C [BALSAMINOSIDE B]	20

// provenance: ChEMBL document CHEMBL3616477
